METHOD SUMMARY: refractive index (Na D-line) (dimensionless); wn = mass fraction of the nth substance listed
CONDITION DESCRIPTION: 293.15 K; 101 kPa; Liquid; Standard Abbe refractometry; w1 = 0.2
Could you please report measured refractive index for the items listed next?
Please reply with the number alone, leaving off any unit.

Query string: Requested field: refractive index. Item: CCCC[N+](CC)(CC)CC.F[P-](F)(F)(F)(F)F [N,N,N-triethyl-N-butylammonium hexafluorophosphate] + O=S(=O)(O)C(F)(F)F
Result string: 1.3522

Query string: What would you report for CCCCCC[N+](CC)(CC)CC.F[B-](F)(F)F [N,N,N-triethyl-N-hexylammonium tetrafluoroborate] + O=S(=O)(O)C(F)(F)F ?
Result string: 1.3572

Query string: What would you report for CCCCCC[N+](CC)(CC)CC.[F][Sb-]([F])([F])([F])([F])[F] [N,N,N-triethyl-N-hexylammonium hexafluoroantimonate] + O=S(=O)(O)C(F)(F)F ?
Result string: 1.3462

---

METHOD SUMMARY: refractive index (Na D-line) (dimensionless); wn = mass fraction of the nth substance listed
CONDITION DESCRIPTION: 293.15 K; 101 kPa; Liquid; Standard Abbe refractometry; w1 = 0.1
Could you please report measured refractive index for the items listed next?
Please reply with the number alone, leaving off any unit.

Query string: Requested field: refractive index. Item: CC[N+](CC)(CC)CC.[F][Sb-]([F])([F])([F])([F])[F] [tetraethylammonium hexafluoroantimonate] + O=S(=O)(O)C(F)(F)F
Result string: 1.3349

Query string: What would you report for CCCCCCCC[N+](CC)(CC)CC.F[P-](F)(F)(F)(F)F [N,N,N-triethyl-N-octylammonium hexafluorophosphate] + O=S(=O)(O)C(F)(F)F ?
Result string: 1.3427

Query string: What would you report for CCCC[N+](CC)(CC)CC.F[B-](F)(F)F [N,N,N-triethyl-N-butylammonium tetrafluoroborate] + O=S(=O)(O)C(F)(F)F ?
Result string: 1.3451

Query string: What would you report for CC[N+](CC)(CC)CC.F[P-](F)(F)(F)(F)F [tetraethylammonium hexafluorophosphate] + O=S(=O)(O)C(F)(F)F ?
Result string: 1.3398

Query string: What would you report for CCCC[N+](CC)(CC)CC.F[P-](F)(F)(F)(F)F [N,N,N-triethyl-N-butylammonium hexafluorophosphate] + O=S(=O)(O)C(F)(F)F ?
Result string: 1.3405

Query string: What would you report for CC[N+](CC)(CC)CC.F[B-](F)(F)F [tetraethylammonium tetrafluoroborate] + O=S(=O)(O)C(F)(F)F ?
Result string: 1.3421

Query string: What would you report for CCCCCC[N+](CC)(CC)CC.F[B-](F)(F)F [N,N,N-triethyl-N-hexylammonium tetrafluoroborate] + O=S(=O)(O)C(F)(F)F ?
Result string: 1.3475

Query string: What would you report for CCCCCC[N+](CC)(CC)CC.[F][Sb-]([F])([F])([F])([F])[F] [N,N,N-triethyl-N-hexylammonium hexafluoroantimonate] + O=S(=O)(O)C(F)(F)F ?
Result string: 1.3381

Query string: What would you report for CCCCCCCC[N+](CC)(CC)CC.F[B-](F)(F)F [N,N,N-triethyl-N-octylammonium tetrafluoroborate] + O=S(=O)(O)C(F)(F)F ?
Result string: 1.3493

Query string: What would you report for CCCCCC[N+](CC)(CC)CC.F[P-](F)(F)(F)(F)F [N,N,N-triethyl-N-hexylammonium hexafluorophosphate] + O=S(=O)(O)C(F)(F)F ?
Result string: 1.3421
